- MEASURED ON: 5-HT1B (Homo sapiens)
- Construct: gene HTR1B; human recombinant receptor, crude membranes of HEK293 or CHO cells
- Sequence (P28222 whole entry): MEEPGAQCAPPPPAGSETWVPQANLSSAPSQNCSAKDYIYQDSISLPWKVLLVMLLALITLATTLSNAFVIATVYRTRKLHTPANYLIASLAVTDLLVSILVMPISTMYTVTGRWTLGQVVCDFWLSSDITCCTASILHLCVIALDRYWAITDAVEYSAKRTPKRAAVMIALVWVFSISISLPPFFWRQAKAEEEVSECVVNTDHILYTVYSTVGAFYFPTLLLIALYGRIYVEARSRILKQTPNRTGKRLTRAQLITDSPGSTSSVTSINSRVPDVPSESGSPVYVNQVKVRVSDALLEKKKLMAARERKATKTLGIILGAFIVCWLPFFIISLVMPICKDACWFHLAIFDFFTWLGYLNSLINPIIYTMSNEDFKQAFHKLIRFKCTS
- METHOD: biochemical
- Design: species or system HEK293 or CHO; competitive radioligand binding on crude membranes, filtration and scintillation counting
PROPERTY MEASURED: inhibition at 10 µM

Ask: Determine from records and report inhibition at 10 µM for C[C@H](Oc1nc(N2CCNC[C@H]2C)ncc1F)c1ccc(F)cc1 [(S,R)-4e]
Result: 17.9%

Count: 4. Required value per item: inhibition at 10 µM.
1. C[C@@H]1CNCCN1c1ncc(F)c(O[C@H](C)c2cccc(F)c2)n1 [(R,R)-4d]
2. C[C@H](Oc1nc(N2CCNC[C@H]2C)ncc1F)c1cccc(F)c1 [(S,R)-4d]
3. C[C@@H]1CNCCN1c1ncc(F)c(O[C@H](C)c2ccc(F)cc2)n1 [(R,R)-4e]
4. C[C@H](Cc1cccc(F)c1)Oc1nc(N2CCNC[C@H]2C)ncc1F [compound 3, pyrimidine analogue 3]

Result:
1. 27.7%
2. 3%
3. 6.4%
4. 55.1%

###

- MEASURED ON: 5-HT3 (Homo sapiens)
- Construct: gene HTR3A; human recombinant receptor, crude membranes of HEK293 or CHO cells
- Sequence (P46098 whole entry): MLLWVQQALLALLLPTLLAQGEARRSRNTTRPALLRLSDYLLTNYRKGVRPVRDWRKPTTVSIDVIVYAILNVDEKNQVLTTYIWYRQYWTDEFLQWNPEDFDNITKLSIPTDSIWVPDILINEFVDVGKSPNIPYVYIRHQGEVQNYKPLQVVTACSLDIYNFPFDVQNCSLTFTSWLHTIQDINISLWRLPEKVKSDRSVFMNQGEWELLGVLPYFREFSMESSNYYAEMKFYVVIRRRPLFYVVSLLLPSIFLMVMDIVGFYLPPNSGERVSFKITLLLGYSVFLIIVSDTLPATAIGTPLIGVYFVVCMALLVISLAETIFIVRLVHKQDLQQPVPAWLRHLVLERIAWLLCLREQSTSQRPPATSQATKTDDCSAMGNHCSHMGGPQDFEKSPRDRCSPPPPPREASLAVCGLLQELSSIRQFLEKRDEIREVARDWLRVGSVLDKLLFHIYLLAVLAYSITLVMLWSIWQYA
- METHOD: biochemical
- Parameters: species or system HEK293 or CHO; competitive radioligand binding on crude membranes, filtration and scintillation counting
- CONDITION NOTES: read-out: Ki (nM), 3
Give measured Ki for each item. Keep answers brief.
Numbers only, in nM.

Worked examples, 2 compounds total:
Ask: Determine from records and report Ki for C[C@@H]1CNCCN1c1ncc(F)c(O[C@H](C)c2ccc(F)cc2)n1 [(R,R)-4e]
Result: 242

Ask: Determine from records and report Ki for C[C@H](Cc1cccc(F)c1)Oc1nc(N2CCNC[C@H]2C)ncc1F [compound 3, pyrimidine analogue 3]
Result: 241

Count: 3. Required value per item: Ki.
1. C[C@H](Oc1nc(N2CCNC[C@H]2C)ncc1F)c1cccc(F)c1 [(S,R)-4d]
2. C[C@@H]1CNCCN1c1ncc(F)c(O[C@H](C)c2cccc(F)c2)n1 [(R,R)-4d]
3. C[C@H](Oc1nc(N2CCNC[C@H]2C)ncc1F)c1ccc(F)cc1 [(S,R)-4e]

Result:
1. 501
2. 242
3. 1000

###

Give measured inhibition at 10 µM for each item. Keep answers brief.
- MEASURED ON: 5-HT1E (Homo sapiens)
- Construct: gene HTR1E; human recombinant receptor, crude membranes of HEK293 or CHO cells
- Sequence (P28566 whole entry): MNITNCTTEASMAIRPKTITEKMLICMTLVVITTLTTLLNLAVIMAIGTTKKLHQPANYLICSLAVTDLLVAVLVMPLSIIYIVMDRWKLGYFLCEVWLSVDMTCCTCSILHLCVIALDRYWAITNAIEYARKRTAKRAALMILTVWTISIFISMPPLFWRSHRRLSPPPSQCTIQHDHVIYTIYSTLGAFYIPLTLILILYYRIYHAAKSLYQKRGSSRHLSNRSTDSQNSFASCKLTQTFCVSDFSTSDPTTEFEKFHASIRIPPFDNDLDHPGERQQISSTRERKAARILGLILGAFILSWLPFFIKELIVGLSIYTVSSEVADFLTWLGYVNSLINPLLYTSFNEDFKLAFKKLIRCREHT
- METHOD: biochemical
- Design: species or system HEK293 or CHO; competitive radioligand binding on crude membranes, filtration and scintillation counting
Give the number first and the unit second.

Worked examples, 3 molecules total:
Ask: Write down measured inhibition at 10 µM (5-HT1E (Homo sapiens)) for this molecule. C[C@H](Cc1cccc(F)c1)Oc1nc(N2CCNC[C@H]2C)ncc1F [compound 3, pyrimidine analogue 3]
Result: 65.6%

Ask: Write down measured inhibition at 10 µM (5-HT1E (Homo sapiens)) for this molecule. C[C@H](Oc1nc(N2CCNC[C@H]2C)ncc1F)c1cccc(F)c1 [(S,R)-4d]
Result: 29.5%

Ask: Write down measured inhibition at 10 µM (5-HT1E (Homo sapiens)) for this molecule. C[C@@H]1CNCCN1c1ncc(F)c(O[C@H](C)c2cccc(F)c2)n1 [(R,R)-4d]
Result: 67.5%

Now consider a different molecule.
Ask: Write down measured inhibition at 10 µM (5-HT1E (Homo sapiens)) for this molecule. C[C@@H]1CNCCN1c1ncc(F)c(O[C@H](C)c2ccc(F)cc2)n1 [(R,R)-4e]
Result: 42.7%

###

Give measured pKi for each item. Keep answers brief.
- MEASURED ON: 5-HT2A (Homo sapiens, UniProt P28223)
- Construct: human recombinant receptor; crude membrane fractions of transfected HEK293 or CHO cells
- Sequence (P28223 whole entry): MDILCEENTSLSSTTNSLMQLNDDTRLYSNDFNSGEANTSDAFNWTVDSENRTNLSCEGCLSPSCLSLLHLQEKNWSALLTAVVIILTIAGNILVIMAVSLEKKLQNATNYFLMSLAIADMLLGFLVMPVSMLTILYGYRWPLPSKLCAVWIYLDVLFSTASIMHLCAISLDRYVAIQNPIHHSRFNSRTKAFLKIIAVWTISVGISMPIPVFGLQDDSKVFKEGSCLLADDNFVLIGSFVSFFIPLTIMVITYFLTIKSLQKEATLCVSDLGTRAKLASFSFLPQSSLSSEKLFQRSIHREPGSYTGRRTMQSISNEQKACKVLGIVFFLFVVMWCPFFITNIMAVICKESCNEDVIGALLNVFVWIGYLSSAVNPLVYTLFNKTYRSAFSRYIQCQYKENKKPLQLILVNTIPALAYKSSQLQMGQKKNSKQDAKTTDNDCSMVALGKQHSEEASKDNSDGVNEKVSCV
- METHOD: radioligand displacement, membranes
One number for each entry, as −log10 of the molar value.

Worked examples, 4 compounds total:
Ask: Determine from records and report pKi for C[C@@H]1CNCCN1c1ncc(F)c(OCCCc2cccc(F)c2)n1
Result: 6.86

Ask: Determine from records and report pKi for C[C@H](Oc1nc(N2CCNC[C@H]2C)ncc1F)c1ccc(F)cc1 [(S,R)-4e]
Result: 5.99

Ask: Determine from records and report pKi for C[C@@H]1CNCCN1c1ncc(F)c(OCc2ccccc2F)n1
Result: 7.10

Ask: Determine from records and report pKi for C[C@H](Oc1nc(N2CCNC[C@H]2C)ncc1F)c1cccc(F)c1 [(S,R)-4d]
Result: 6.32

Now consider a different compound.
Ask: Determine from records and report pKi for CC(CCc1ccc(F)cc1)Oc1nc(N2CCNC[C@H]2C)ncc1F (mixture of isomers)
Result: 6.76

###

- MEASURED ON: 5-HT2C (Homo sapiens)
- Construct: gene HTR2C; human recombinant receptor; crude membrane fractions of transfected cells (CHO-K1; HEK293 or CHO)
- METHOD: [3H]mesulergine displacement, membranes
- Format: binding
- CONDITION NOTES: read-out: 5-HT2B / Ki
PROPERTY MEASURED: Ki (nM)
Answers are plain numbers, in nM.

Ask: Determine from records and report Ki for C[C@@H]1CNCCN1c1ncc(F)c(OCCCc2ccc(F)cc2)n1 [4g]
Result: 22

###

- MEASURED ON: 5-HT2C (Homo sapiens)
- Construct: gene HTR2C; human recombinant receptor; crude membrane fractions of transfected cells (CHO-K1; HEK293 or CHO)
- Sequence (P28335 33-458): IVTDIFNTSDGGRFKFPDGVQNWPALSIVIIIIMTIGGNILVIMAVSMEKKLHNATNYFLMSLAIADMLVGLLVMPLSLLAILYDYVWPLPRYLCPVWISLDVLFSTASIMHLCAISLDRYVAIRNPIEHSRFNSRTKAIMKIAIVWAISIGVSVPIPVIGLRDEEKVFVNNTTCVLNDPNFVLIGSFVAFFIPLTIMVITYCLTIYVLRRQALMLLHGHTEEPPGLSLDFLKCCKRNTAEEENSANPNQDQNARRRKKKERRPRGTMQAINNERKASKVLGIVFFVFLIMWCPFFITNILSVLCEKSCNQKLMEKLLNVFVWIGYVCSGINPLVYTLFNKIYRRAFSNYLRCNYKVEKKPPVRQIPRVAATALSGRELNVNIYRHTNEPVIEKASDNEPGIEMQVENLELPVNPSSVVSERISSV
- METHOD: [3H]mesulergine displacement, membranes
- Format: binding
- CONDITION NOTES: pH […] MgCl2, room temperature; reference compound, may stem from the authors' earlier study (ref […])
PROPERTY MEASURED: Ki (nM)
Answers are plain numbers, in nM.

Ask: Determine from records and report Ki for C[C@H](Cc1cccc(F)c1)Oc1nc(N2CCNC[C@H]2C)ncc1F
Result: 0.7

###

Give measured Ki for each item. Keep answers brief.
- MEASURED ON: 5-HT6 (Homo sapiens)
- Construct: gene HTR6; human recombinant receptor, crude membranes of HEK293 or CHO cells
- Sequence (P50406 whole entry): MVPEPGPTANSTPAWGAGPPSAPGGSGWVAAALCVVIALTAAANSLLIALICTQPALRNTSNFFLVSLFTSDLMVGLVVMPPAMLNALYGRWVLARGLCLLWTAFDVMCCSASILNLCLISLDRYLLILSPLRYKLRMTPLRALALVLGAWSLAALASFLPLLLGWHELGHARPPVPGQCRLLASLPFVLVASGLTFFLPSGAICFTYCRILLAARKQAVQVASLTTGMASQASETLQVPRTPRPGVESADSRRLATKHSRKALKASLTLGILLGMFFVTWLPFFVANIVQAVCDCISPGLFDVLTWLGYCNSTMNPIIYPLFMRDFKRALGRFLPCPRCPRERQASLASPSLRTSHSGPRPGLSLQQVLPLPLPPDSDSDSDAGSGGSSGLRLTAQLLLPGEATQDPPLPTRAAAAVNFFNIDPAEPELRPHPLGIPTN
- METHOD: biochemical
- Design: species or system HEK293 or CHO; competitive radioligand binding on crude membranes, filtration and scintillation counting
- CONDITION NOTES: read-out: Ki (nM), 6
Numbers only, in nM.

Count: 4. Required value per item: Ki.
1. C[C@H](Oc1nc(N2CCNC[C@H]2C)ncc1F)c1cccc(F)c1 [(S,R)-4d]
2. C[C@@H]1CNCCN1c1ncc(F)c(O[C@H](C)c2cccc(F)c2)n1 [(R,R)-4d]
3. C[C@H](Cc1cccc(F)c1)Oc1nc(N2CCNC[C@H]2C)ncc1F
4. C[C@@H]1CNCCN1c1ncc(F)c(O[C@H](C)c2ccc(F)cc2)n1 [(R,R)-4e]

Result:
70
57
43
17

Ask: Determine from records and report Ki for C[C@H](Oc1nc(N2CCNC[C@H]2C)ncc1F)c1ccc(F)cc1 [(S,R)-4e]
Result: 116

###

- MEASURED ON: 5-HT1A (Homo sapiens)
- Construct: gene HTR1A; human recombinant receptor, crude membranes of HEK293 or CHO cells
- Sequence (P08908 whole entry): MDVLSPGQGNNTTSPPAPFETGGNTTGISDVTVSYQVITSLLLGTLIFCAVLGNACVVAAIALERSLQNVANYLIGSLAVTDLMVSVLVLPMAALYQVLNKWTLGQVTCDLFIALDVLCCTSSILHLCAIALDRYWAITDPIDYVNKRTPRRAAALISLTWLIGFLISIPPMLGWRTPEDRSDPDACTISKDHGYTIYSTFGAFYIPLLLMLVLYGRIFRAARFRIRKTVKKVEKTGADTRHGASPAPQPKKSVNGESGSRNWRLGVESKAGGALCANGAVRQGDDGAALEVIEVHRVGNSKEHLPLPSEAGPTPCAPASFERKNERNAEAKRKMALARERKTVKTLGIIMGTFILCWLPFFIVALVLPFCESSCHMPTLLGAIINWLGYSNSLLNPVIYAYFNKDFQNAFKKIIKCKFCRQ
- METHOD: biochemical
- Parameters: species or system HEK293 or CHO; competitive radioligand binding on crude membranes, filtration and scintillation counting
Tick satisfied if inhibition at 10 µM is 70% or greater. Tick not satisfied if inhibition at 10 µM is less than 70%.

Ask: Threshold query (inhibition at 10 µM >= 70%) on C[C@H](Oc1nc(N2CCNC[C@H]2C)ncc1F)c1cccc(F)c1 [(S,R)-4d]
Result: not satisfied

Ask: Threshold query (inhibition at 10 µM >= 70%) on C[C@@H]1CNCCN1c1ncc(F)c(O[C@H](C)c2ccc(F)cc2)n1 [(R,R)-4e]
Result: not satisfied

Ask: Threshold query (inhibition at 10 µM >= 70%) on C[C@H](Oc1nc(N2CCNC[C@H]2C)ncc1F)c1ccc(F)cc1 [(S,R)-4e]
Result: not satisfied

Ask: Threshold query (inhibition at 10 µM >= 70%) on C[C@@H]1CNCCN1c1ncc(F)c(O[C@H](C)c2cccc(F)c2)n1 [(R,R)-4d]
Result: satisfied

***
Ask: Threshold query (inhibition at 10 µM >= 70%) on C[C@H](Cc1cccc(F)c1)Oc1nc(N2CCNC[C@H]2C)ncc1F
Result: satisfied
